target: HLA-B*40:01; assay: IEDB peptide-MHC binding, purified MHC/competitive/radioactivity; filed as Kd, often an IC50 or EC50 that approximates it; bounds were set here for any values at or beyond the usual limits of such assays; conditions: source organism: Dengue virus 3 Martinique/1243/1999

residue.sequence | target.or.system | Kd / nM
GEYRLKGESR | HLA-B*40:01 | 4130
FETYQLWTAL | HLA-B*40:01 | 10.4

----------
biological target: HLA-B*46:01; experiment: IEDB peptide-MHC binding, purified MHC/competitive/fluorescence; filed as Kd, often an IC50 or EC50 that approximates it; bounds were set here for any values at or beyond the usual limits of such assays; conditions: source organism: Vibrio parahaemolyticus RIMD 2210633

residue.sequence | Kd
HVIYFTAFT | ≥ 20 µM
